Quick list: K per entry.
TARGET OR SYSTEM: Sodium channel protein type 8 subunit alpha (Homo sapiens)
Sequence (Q9UQD0 whole entry, looked up, the tested form may be a part): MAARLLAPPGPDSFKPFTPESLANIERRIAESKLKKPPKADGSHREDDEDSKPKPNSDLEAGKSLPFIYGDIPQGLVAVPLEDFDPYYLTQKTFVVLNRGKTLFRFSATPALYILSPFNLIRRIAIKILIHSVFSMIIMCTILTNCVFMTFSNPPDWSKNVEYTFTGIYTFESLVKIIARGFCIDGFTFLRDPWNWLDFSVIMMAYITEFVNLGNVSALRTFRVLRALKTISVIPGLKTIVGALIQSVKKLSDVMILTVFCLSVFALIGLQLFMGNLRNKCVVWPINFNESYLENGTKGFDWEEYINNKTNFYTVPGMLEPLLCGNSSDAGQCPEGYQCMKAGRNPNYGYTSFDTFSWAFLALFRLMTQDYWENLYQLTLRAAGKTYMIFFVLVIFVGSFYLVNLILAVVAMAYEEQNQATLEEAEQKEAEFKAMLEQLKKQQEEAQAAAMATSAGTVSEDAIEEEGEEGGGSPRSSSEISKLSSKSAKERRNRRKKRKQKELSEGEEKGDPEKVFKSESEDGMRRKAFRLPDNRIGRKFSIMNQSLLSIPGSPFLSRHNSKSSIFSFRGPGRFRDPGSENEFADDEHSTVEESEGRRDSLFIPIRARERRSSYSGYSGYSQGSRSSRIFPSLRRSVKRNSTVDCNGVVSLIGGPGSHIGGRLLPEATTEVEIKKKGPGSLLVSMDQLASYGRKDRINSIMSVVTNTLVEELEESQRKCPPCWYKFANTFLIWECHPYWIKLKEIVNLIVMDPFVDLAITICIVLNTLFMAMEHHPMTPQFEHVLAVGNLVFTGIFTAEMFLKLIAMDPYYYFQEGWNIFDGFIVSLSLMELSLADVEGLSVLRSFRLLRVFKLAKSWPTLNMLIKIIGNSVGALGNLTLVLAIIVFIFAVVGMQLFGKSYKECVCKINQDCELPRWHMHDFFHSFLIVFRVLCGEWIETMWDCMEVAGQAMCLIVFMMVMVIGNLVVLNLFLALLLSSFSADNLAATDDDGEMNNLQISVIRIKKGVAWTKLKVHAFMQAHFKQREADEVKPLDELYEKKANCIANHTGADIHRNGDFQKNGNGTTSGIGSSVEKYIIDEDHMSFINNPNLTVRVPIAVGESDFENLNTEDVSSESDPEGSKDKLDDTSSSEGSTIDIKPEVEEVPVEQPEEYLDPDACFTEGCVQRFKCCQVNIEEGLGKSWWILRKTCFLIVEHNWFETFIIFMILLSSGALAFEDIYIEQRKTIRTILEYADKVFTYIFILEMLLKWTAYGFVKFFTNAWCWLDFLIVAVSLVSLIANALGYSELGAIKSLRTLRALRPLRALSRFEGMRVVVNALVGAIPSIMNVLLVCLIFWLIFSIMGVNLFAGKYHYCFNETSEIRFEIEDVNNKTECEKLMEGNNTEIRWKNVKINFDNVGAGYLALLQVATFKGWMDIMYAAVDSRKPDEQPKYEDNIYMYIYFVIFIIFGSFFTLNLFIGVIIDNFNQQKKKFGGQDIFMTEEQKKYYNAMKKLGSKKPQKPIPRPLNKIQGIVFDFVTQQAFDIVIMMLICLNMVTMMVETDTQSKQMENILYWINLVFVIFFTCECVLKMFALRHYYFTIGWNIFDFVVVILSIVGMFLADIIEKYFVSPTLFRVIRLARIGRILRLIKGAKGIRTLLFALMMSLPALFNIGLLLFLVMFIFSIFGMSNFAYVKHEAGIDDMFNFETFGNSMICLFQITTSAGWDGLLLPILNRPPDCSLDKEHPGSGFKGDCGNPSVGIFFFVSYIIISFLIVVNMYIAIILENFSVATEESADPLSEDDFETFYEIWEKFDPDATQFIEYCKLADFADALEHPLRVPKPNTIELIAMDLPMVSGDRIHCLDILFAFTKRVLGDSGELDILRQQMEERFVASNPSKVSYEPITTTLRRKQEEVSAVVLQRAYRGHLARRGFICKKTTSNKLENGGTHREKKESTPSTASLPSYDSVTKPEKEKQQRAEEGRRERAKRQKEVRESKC
METHOD DESCRIPTION: Binding affinity to human recombinant Nav1.6 C-terminal domain expressed in Escherichia coli BL21 assessed as association rate constant by SPR analysis
TEST SETTINGS: filed as modulator
Residues, ends and D or L forms follow the SMILES beside them. *: point of attachment. Adamantane1carbonyl = O=C(C12CC3CC(CC(C3)C1)C2)*; Cbz = O=C(OCc1ccccc1)*; OtBu = CC(C)(C)O*; OAll = C=CCO*

- COMPOUND: "C=CCOC(=O)[C@@H](NC(=O)[C@H](CCC(=O)OC(C)(C)C)NC(=O)[C@H](CC(C)C)NC(=O)[C@@H]1CCCN1C(=O)C12CC3CC(CC(C3)C1)C2)C(C)C (Adamantane1carbonyl-PLE(OtBu)V-OAll)"
  K: "6.16 10^6/M/s"
- COMPOUND: "CCOC(=O)[C@@H](NC(=O)[C@H](CCC(=O)OC(C)(C)C)NC(=O)[C@H](CC(C)C)NC(=O)[C@@H]1CCCN1C(=O)C12CC3CC(CC(C3)C1)C2)C(C)C (Adamantane1carbonyl-PLE(OtBu)V-OEt)"
  K: "2.64 10^3/M/s"
- COMPOUND: "C=CCOC(=O)[C@@H](NC(=O)[C@H](CCC(=O)OC(C)(C)C)NC(=O)[C@H](CC(C)C)NC(=O)[C@@H]1CCCN1C(=O)OCc1ccccc1)C(C)C (Cbz-PLE(OtBu)V-OAll)"
  K: "2.57 10^5/M/s"
- COMPOUND: "CC(C)C[C@H](NC(=O)[C@@H]1CCCN1C(=O)C12CC3CC(CC(C3)C1)C2)C(=O)N[C@@H](CCC(=O)OC(C)(C)C)C(=O)N[C@H](C(=O)OC(C)(C)C)C(C)C (Adamantane1carbonyl-PLE(OtBu)V-OtBu)"
  K: "8.29 10^5/M/s"
- COMPOUND: "COC(=O)[C@@H](NC(=O)[C@H](CCC(=O)OC(C)(C)C)NC(=O)[C@H](CC(C)C)NC(=O)[C@@H]1CCCN1C(=O)C12CC3CC(CC(C3)C1)C2)C(C)C (Adamantane1carbonyl-PLE(OtBu)V-OMe)"
  K: "6.23 10^4/M/s"
